- system-tested: recombinant human PD-1 protein (Homo sapiens)
- Construct: amino acids 34-150 of human PD-1
- Sequence (Q15116 34-150): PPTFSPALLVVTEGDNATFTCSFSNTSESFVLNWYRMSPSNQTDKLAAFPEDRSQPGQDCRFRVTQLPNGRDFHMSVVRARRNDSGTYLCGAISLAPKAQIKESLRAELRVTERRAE
- assay-procedure: SPR determination of binding constants between saponin natural products and PD-1 protein
- setup-conditions: PD-1 coupled to CM7 chip, steady-state fitting, read-out: Binding affinity KD
- Experimental: Surface plasmon resonance (SPR) was used to determine the binding affinity between natural products and PD-1 protein. Specific experimental steps are as follows: Firstly, the purified protein was exchanged into 50 mM Hepes, pH 8.0, 250 mM NaCl, 1 mM DTT buffer, and diluted to 50 μg/ml with sodium acetate pH 4.5. […] The final data was analyzed by BIAevaluation2.0 software, and KD values were obtained by steady-state fitting.

{"molecule": "C[C@@H]1O[C@@H](O[C@H]2[C@H](O[C@H]3[C@H](O[C@H]4CC[C@@]5(C)[C@@H](CC[C@]6(C)[C@@H]5CC=C5[C@@H]7CC(C)(C)C[C@@H](O)[C@]7(C)CC[C@]56C)[C@@]4(C)CO)O[C@H](C(=O)O)[C@@H](O)[C@@H]3O)O[C@H](CO)[C@H](O)[C@@H]2O)[C@H](O)[C@H](O)[C@H]1O [Compound 7]", "system-tested": "recombinant human PD-1 protein (Homo sapiens)", "Kd, nM": 2190}
{"molecule": "C[C@@H]1CC[C@]2(C(=O)O)CC[C@]3(C)C(=CCC4[C@@]5(C)CC[C@H](O)C(C)(C)C5CC[C@]43C)C2[C@H]1C (stereo partly drawn) [Compound 9]", "system-tested": "recombinant human PD-1 protein (Homo sapiens)", "Kd, nM": 4920}
{"molecule": "CC1(C)CC[C@]2(C(=O)O)CC[C@]3(C)C(=CCC4[C@@]5(C)CC[C@H](O)C(C)(C)C5CC[C@]43C)C2C1 (stereo partly drawn) [Compound 10]", "system-tested": "recombinant human PD-1 protein (Homo sapiens)", "Kd, nM": 2710}
{"molecule": "CC1(C)CC[C@]2(C(=O)O[C@@H]3O[C@H](CO)[C@@H](O)[C@H](O)[C@H]3O)CC[C@]3(C)C(=CCC4[C@@]5(C)CCC(OC6O[C@H](C(=O)O)[C@@H](O)[C@H](O)[C@H]6O)C(C)(C)C5CC[C@]43C)[C@H]2C1 (stereo partly drawn) [Compound 4]", "system-tested": "recombinant human PD-1 protein (Homo sapiens)", "Kd, nM": 560}
{"molecule": "C[C@H]1[C@H](C)CC[C@]2(C(=O)O)CC[C@]3(C)C(=CC[C@@H]4[C@@]5(C)C[C@@H](O)[C@H](O)C(C)(C)[C@@H]5CC[C@]43C)[C@H]12 [Compound 11]", "system-tested": "recombinant human PD-1 protein (Homo sapiens)", "Kd, nM": 1400}
{"molecule": "CC1(C)CC[C@]2(C(=O)O)CC[C@]3(C)C(=CC[C@@H]4[C@@]5(C)CC[C@H](O[C@@H]6O[C@H](C(=O)O)[C@@H](O)[C@H](O[C@@H]7OC[C@@H](O)[C@H](O)[C@H]7O)[C@H]6O)C(C)(C)[C@@H]5CC[C@]43C)[C@@H]2C1 [Compound 6]", "system-tested": "recombinant human PD-1 protein (Homo sapiens)", "Kd, nM": 40}
{"molecule": "C[C@@H]1OC(O[C@H]2C(O[C@H]3CC[C@@]4(C)C(CC[C@]5(C)C4CC=C4C6CC(C)(C)CC[C@]6(C(=O)O)CC[C@]45C)[C@]3(C)CO)OC[C@H](OC3O[C@H](CO)[C@@H](O)[C@H](O)[C@H]3O)[C@@H]2O)[C@H](O)[C@H](O)[C@H]1O (stereo partly drawn) [Compound 3]", "system-tested": "recombinant human PD-1 protein (Homo sapiens)", "Kd, nM": 2100}
{"molecule": "C[C@@H]1CC[C@@]2(C(=O)O)CC[C@]3(C)C(=CCC4[C@@]5(C)C[C@@H](O)[C@H](O)C(C)(C)C5CC[C@]43C)C2[C@H]1C (stereo partly drawn) [Compound 8]", "system-tested": "recombinant human PD-1 protein (Homo sapiens)", "Kd, nM": 5020}
{"molecule": "CC1(C)CC[C@]2(C(=O)O)CC[C@]3(C)C(=CC[C@@H]4[C@@]5(C)CC[C@H](O)[C@@](C)(CO)[C@@H]5CC[C@]43C)[C@@H]2C1 [Compound 5]", "system-tested": "recombinant human PD-1 protein (Homo sapiens)", "Kd, nM": 5360}
